Biological target: T1, Recombinant Human BDCA2 (human, UniProt Q8WTT0 45-213, limits assumed)
T1 construct: also called hBDCA2 (SPR analyte); human BDCA2 antigen
T1 sequence (looked up): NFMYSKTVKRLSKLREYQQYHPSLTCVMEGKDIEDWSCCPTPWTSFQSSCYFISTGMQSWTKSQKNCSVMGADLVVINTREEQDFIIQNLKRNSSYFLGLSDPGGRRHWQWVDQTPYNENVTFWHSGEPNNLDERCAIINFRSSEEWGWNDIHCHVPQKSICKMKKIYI
Assay: SPR (BIAcore), antibody captured by anti-human IgG (Fc), hBDCA2 as analyte, 1:1 model
pKd: −log10 of the molar value.
Readout Kind: pKd

>  <Binder>
Hu033-10 (antibody, IgG1, V domains shown, Humanized IgG1; also called Hu033-10(BM4)) VH: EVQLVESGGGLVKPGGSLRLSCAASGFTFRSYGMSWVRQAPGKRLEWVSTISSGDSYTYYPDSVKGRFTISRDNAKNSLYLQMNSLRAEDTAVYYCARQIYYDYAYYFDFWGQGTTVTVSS VL: DIVLTQSPASLAVSPGQRATITCRASESVSFRTSHLMHWYQQKPGQPPKLLIYGASNLESGVPARFSGSGSETDFTLTINPVEAEDTANYYCQQSIEDPPTFGGGTKVEIK

>  <Endpoint Result>
9.70

$$$$

Origin of measurements: patent US20250346673A1
